The following molecules are listed with their measured pIC50 values.
tested on: Cne H99 strain; assay: cell-based anti-Cryptococcus neoformans growth inhibition dose-response assay (resazurin to resorufin fluorescence); conditions: Cne H99, concentration series 0.02-50 μM, 24 hours incubation
pIC50: −log10 of the molar value.
Quantity name: pIC50

>>> result("COc1ccc(OCc2nnc3sc(-c4ccc5c(c4)OCCO5)nn23)cc1")
6.22
>>> result("Clc1ccc(CCNc2ncnc3sccc23)cc1")
6.46
>>> result("NC(=O)c1cnc(NCCc2ccc(O)c(Cl)c2)nc1NCc1ccccc1")
5.20
>>> result("Cc1ccccc1Nc1nc(Nc2ccccc2)c2cnn(C)c2n1")
5.27
>>> result("CCC(C)c1ccc(N2C(=O)C=CC2=O)cc1 (stereo not drawn)")
5.26
>>> result("c1ccc(CN2CCOc3ccccc3CCCCC3(CCNCC3)C2)cc1")
6.24
>>> result("Cc1cc(C)cc(N2C(=O)C=CC2=O)c1")
5.27
>>> result("O=C(O)c1ccc(-c2ccc3cc(C45CC6CC(CC(C6)C4)C5)c(O)cc3c2)cc1")
5.61
>>> result("O=c1nc(SCc2ccc(F)cc2)c2c(n1Cc1ccccc1)CCC2")
5.64
>>> result("CCCCOc1ccc(-c2cc3c(N4CCN(CC)CC4)nccn3n2)cc1")
5.09
>>> result("CC(C)CCNCC(O)Cn1c2ccc(Br)cc2c2cc(Br)ccc21 (stereo not drawn)")
5.62
>>> result("Clc1cc(Cl)c(OCC#CI)cc1Cl")
5.84
>>> result("Cc1ccc(S(=O)(=O)C=CC#N)cc1")
5.29
>>> result("Cc1cc(Nc2nc(NC(C)c3ccc(F)cc3)c(C#N)cc2F)n[nH]1 (stereo not drawn)")
4.98
>>> result("CCOC(=O)c1sc(NC(=O)c2ccco2)c(SC#N)c1C")
5.51
>>> result("COC(=O)c1sc(-c2cccs2)cc1N1C(=O)C=CC1=O")
5.31
>>> result("C(=N/n1cnnc1)/c1ccc(N(c2ccccc2)c2ccccc2)cc1")
4.98
>>> result("COc1ccc(CC2NCC(O)C2OC(C)=O)cc1 (stereo not drawn)")
5.01
>>> result("Nc1ccc2ncnc(NCCc3ccc(Oc4ccccc4)cc3)c2c1")
5.74
>>> result("CN1c2cc3c(cc2N=C(c2ccc(C(=O)O)cc2)c2ccccc21)C(C)(C)CCC3(C)C")
5.00
>>> result("CCCCCCCCc1ccc(CCC(N)(CO)CO)cc1")
5.32
